molecular target: Recombinant human GSK3β (Homo sapiens, UniProt P49841); construct: His-tag; made in house; host or cells: Sf9 insect cells / baculovirus; assay: GSK-3β (Glycogen Synthase Kinase) cell free enzyme assay; type: biochemical; details: cell free enzyme assay; Examples 62-155
Sequence (P49841 whole entry): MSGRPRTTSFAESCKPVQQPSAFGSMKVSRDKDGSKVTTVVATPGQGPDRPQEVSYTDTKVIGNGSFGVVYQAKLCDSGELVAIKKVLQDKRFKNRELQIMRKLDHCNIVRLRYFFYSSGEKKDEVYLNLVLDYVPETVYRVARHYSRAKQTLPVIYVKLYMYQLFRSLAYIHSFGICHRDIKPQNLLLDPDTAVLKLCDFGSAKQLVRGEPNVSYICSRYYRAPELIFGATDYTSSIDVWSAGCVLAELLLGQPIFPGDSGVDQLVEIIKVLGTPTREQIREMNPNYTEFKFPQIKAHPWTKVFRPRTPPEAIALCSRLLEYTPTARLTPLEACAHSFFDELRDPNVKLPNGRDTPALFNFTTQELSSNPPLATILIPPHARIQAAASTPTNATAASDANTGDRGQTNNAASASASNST
# label = YES if IC50 < 60 nM else NO

CN(c1nc(-c2ccncc2F)cc(=O)n1C)[C@H]1[C@@H]2CN(C(=O)CC(C)(C)C)C[C@@H]21 [Example 131] : YES
CCCC(C)C(=O)N1C[C@@H]2[C@H](C1)[C@H]2N(C)c1nc(-c2ccncc2F)cc(=O)n1C (stereo partly shown) [Example 100] : YES
CCN(c1nc(-c2ccncc2)cc(=O)n1C)C1CCCN(C(=O)Cc2ccccc2)CC1 (stereo not shown) [Example 89] : NO

IN: is_below(IC50, 60 nM) for Cn1c(NC2CCCCN(C(=O)Cc3ccccc3)C2)nc(-c2ccncc2)cc1=O (stereo not shown) [Example 84] ?
OUT: NO

IN: is_below(IC50, 60 nM) for CN(c1nc(-c2ccncc2F)cc(=O)n1C)[C@H]1[C@@H]2CN(C(=O)C3CCCC3)C[C@@H]21 [Example 108] ?
OUT: YES

IN: is_below(IC50, 60 nM) for COC(=O)CCC(=O)N1C[C@@H]2[C@H](C1)[C@H]2N(C)c1nc(-c2ccncc2F)cc(=O)n1C [Example 129] ?
OUT: NO

IN: is_below(IC50, 60 nM) for Cc1ccc(C(=O)N2C[C@@H]3[C@H](C2)[C@H]3N(C)c2nc(-c3ccncc3F)cc(=O)n2C)cc1 [Example 142] ?
OUT: YES

###

molecular target: Recombinant human GSK3β (Homo sapiens, UniProt P49841); construct: His-tag; made in house; host or cells: Sf9 insect cells / baculovirus; experiment: GSK-3β (Glycogen Synthase Kinase) cell free enzyme assay; assay type: biochemical; conditions: 1 μM; Examples 236-262; read-out: Percent inhibition at 1 μM
Records here are stratified by inhibition at 1 µM; strata: low band (below 50%), middle band (50% to below 70%), high band (70% or more)

Below are worked cases with known answers.
CCN(c1nc(-c2ccncc2)cc(=O)n1C)C1CCCN(C)CC1 (stereo not drawn) [Example 247] : high band
CN(c1nc(-c2ccncc2)cc(=O)n1C)C1CCCN(Cc2ccccc2)CC1 (stereo not drawn) [Example 255] : high band

IN: Please classify: CN(c1nc(-c2ccncc2)cc(=O)n1C)[C@H]1CC[C@H]2N(Cc3ccccc3)CC[C@@]2(C)C1 [Example 254]
OUT: low band

IN: Please classify: CCN(c1nc(-c2ccncc2)cc(=O)n1C)C1CCN(Cc2ccccc2)CC1 [Example 260]
OUT: low band

IN: Please classify: CCN(c1nc(-c2ccncc2)cc(=O)n1C)C1CCN(C)C1 (stereo not drawn) [Example 244]
OUT: middle band

IN: Please classify: CN(c1nc(-c2ccncc2)cc(=O)n1C)C1CCN(Cc2ccccc2)C1 (stereo not drawn) [Example 256]
OUT: high band

IN: Please classify: CN1CC(CNc2nc(-c3ccncc3)cc(=O)n2C)C1 [Example 249]
OUT: low band

IN: Please classify: CCN(c1nc(-c2ccncc2)cc(=O)n1C)C1CCN(C)CC1 [Example 248]
OUT: low band

IN: Please classify: CN1C[C@H](F)[C@H](Nc2nc(-c3ccncc3)cc(=O)n2C)C1 [Example 246]
OUT: middle band

IN: Please classify: CN1[C@@H]2CC[C@H]1CN(c1nc(-c3ccncc3)cc(=O)n1C)C2 [Example 238]
OUT: low band

IN: Please classify: Cn1c(NC2CCN(Cc3ccccc3)C2)nc(-c2ccncc2)cc1=O (stereo not drawn) [Example 236]
OUT: middle band

IN: Please classify: Cn1c(NC2CCCN(Cc3ccccc3)CC2)nc(-c2ccncc2)cc1=O (stereo not drawn) [Example 237]
OUT: high band

IN: Please classify: CN1C[C@H](Nc2nc(-c3ccncc3)cc(=O)n2C)[C@@H](F)C1 [Example 242]
OUT: low band

IN: Please classify: Cn1c(NC2CCCCN(Cc3ccccc3)C2)nc(-c2ccncc2)cc1=O (stereo not drawn) [Example 252]
OUT: high band

IN: Please classify: CN1CCC(N(C)c2nc(-c3ccncc3)cc(=O)n2C)C1 (stereo not drawn) [Example 245]
OUT: middle band
